test system: NEK4; conditions: concentration: 1 μM, replicates: in singlicate; n = 1;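 note: KINOMEscan kinase panel screen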
Listed next: entries and their corresponding %Inh.
measuredProperty: %Inh

givensmiles=Cc1ccc(O)cc1Nc1ccnc2cc(-c3ccc(CN4CCCCC4)o3)ccc12 result=0%
givensmiles=Cc1ccc(O)cc1Nc1ccnc2ccc(C(C)(C)C)cc12 result=1%
givensmiles=Nc1ncc(-c2ccc3nccc(-c4ccncc4)c3c2)cc1S(=O)(=O)N1CCCCC1 result=0%
givensmiles=Cc1ccc(NC(=O)c2ccc(Cl)c(Cl)c2)cc1-c1ccc(C(=O)Nc2ccncc2)cc1 result=0%
givensmiles=Cl.N#CCc1ccc(Nc2nccc(Nc3ccc(Oc4ccccc4)cc3)n2)cc1 result=16%
givensmiles=Cc1cc(-c2c(-c3ccc(F)cc3)ncn2CCCN2CCOCC2)nc(N)n1 result=0%
givensmiles=COc1cccc(CC(=O)N2CCc3cc(-c4cn(C)c5ncnc(N)c45)ccc32)c1 result=44%
givensmiles=Cn1cc(-c2ccc3c(c2)CCN3C(=O)Cc2cc(F)cc(C(F)(F)F)c2)c2c(N)ncnc21 result=13%

====

tested on: MEK3; construct: gene MAP2K3; details: concentration: 1 μM, replicates: in singlicate; n = 1
measuredProperty: %Inh (%)

molecule=Cl.N#CCc1ccc(Nc2nccc(Nc3ccc(Oc4ccccc4)cc3)n2)cc1 tgt=MEK3 measuredproperty=%Inh resultnumber=0
molecule=Cc1cc(-c2ccnc(Nc3cccc(C#N)c3)n2)cc(C)c1O tgt=MEK3 measuredproperty=%Inh resultnumber=89
molecule=COc1cccc2c(-c3ccncc3)c(-c3ccc(F)cc3)nn12 tgt=MEK3 measuredproperty=%Inh resultnumber=0
molecule=N#Cc1cnc2cc(-c3cnc(CNCCN4CCOCC4)s3)ccc2c1Nc1ccc(Oc2ccccc2)cc1 tgt=MEK3 measuredproperty=%Inh resultnumber=9
molecule=COC(=O)Nc1nc2ccc(Oc3ccc(CC(=O)Nc4cc(C(F)(F)F)ccc4F)cc3)cc2[nH]1 tgt=MEK3 measuredproperty=%Inh resultnumber=0
molecule=O=C(O)C(F)(F)F.O=c1[nH]ccc2nc(N[C@@H]3CCNC3)nc(Nc3cc(Cl)cc(Cl)c3)c12 tgt=MEK3 measuredproperty=%Inh resultnumber=88
molecule=COc1cccc(CC(=O)N2CCc3cc(-c4cn(C)c5ncnc(N)c45)ccc32)c1 tgt=MEK3 measuredproperty=%Inh resultnumber=0
molecule=CCn1c(-c2nonc2N)nc2c(-c3ccccc3)ncc(OCCCN)c21.O=C(O)C(F)(F)F.O=C(O)C(F)(F)F tgt=MEK3 measuredproperty=%Inh resultnumber=0
molecule=O=C(Nc1n[nH]c2nc(-c3ccccc3O)ccc12)C1CC1 tgt=MEK3 measuredproperty=%Inh resultnumber=40
molecule="CC(C)NCC(Cc1ccccc1)NC(=O)c1cc(Br)c(-c2ccnc3[nH]ccc23)s1.Cl.Cl (centres unmarked)" tgt=MEK3 measuredproperty=%Inh resultnumber=87
molecule=CN(c1ccc(F)c(NC(=O)c2cccc(OC(C)(C)C#N)c2Cl)c1)c1ccc2nc(NC(=O)C3CC3)sc2n1 tgt=MEK3 measuredproperty=%Inh resultnumber=0
molecule=CSc1ccc(NC2=C(c3ccc(Cl)cc3)C(=O)NC2=O)cc1 tgt=MEK3 measuredproperty=%Inh resultnumber=0
molecule=Nc1ncnc2scc(-c3ccc(NC(=O)Cc4cc(F)ccc4F)cc3)c12.O=C(O)C(F)(F)F tgt=MEK3 measuredproperty=%Inh resultnumber=23
molecule=Nc1cccc(-c2ccc3c(N)n[nH]c3c2)c1 tgt=MEK3 measuredproperty=%Inh resultnumber=0
molecule=COc1ccc(NC(=O)c2ccoc2)cc1-c1ccc(C(=O)NCC2CC2)cc1 tgt=MEK3 measuredproperty=%Inh resultnumber=36
molecule=CC(C)c1nc(-c2cccc(NS(=O)(=O)c3c(F)cccc3F)c2)c(-c2ccnc(Nc3ccc(N4CCOCC4)nc3)n2)s1.Cl tgt=MEK3 measuredproperty=%Inh resultnumber=15
molecule=O=C(Nc1n[nH]c2nc(-c3cccc(O)c3)ccc12)C1CC1 tgt=MEK3 measuredproperty=%Inh resultnumber=41

====

system: KIT-autoinhibited; details: concentration: 1 μM, replicates: in singlicate; n = 1
Listed next: entries and their corresponding %Inh.
measuredProperty: %Inh (%)

givensmiles=O=C(Nc1n[nH]c2nc(-c3ccccc3)ccc12)C1CC1 measuredproperty=%Inh resultnumber=0
givensmiles=Cn1cc(-c2cnc(N)c3c(-c4ccc5c(c4)CCN5C(=O)Cc4ccccc4)csc23)cn1 measuredproperty=%Inh resultnumber=32
givensmiles=CNc1nccc(-c2ccc3c(N)n[nH]c3c2)n1 measuredproperty=%Inh resultnumber=0
givensmiles=CCNc1nccc(-c2c(-c3ccc(F)cc3)ncn2C2CCN(C)CC2)n1 measuredproperty=%Inh resultnumber=0
givensmiles=Fc1cc(Cl)ccc1Nc1ccnc2cc(-c3ccc(CN4CCOCC4)o3)ccc12 measuredproperty=%Inh resultnumber=22

====

tested on: ACVR1; settings: concentration: 1 μM, replicates: in singlicate; n = 1
Listed next: entries and their corresponding %Inh.
measuredProperty: %Inh (%)

compound=O=C(Nc1n[nH]c2nc(-c3cccc(O)c3)ccc12)C1CC1 tgt=ACVR1 resultnumber=32
compound=COc1cccc(C2=C(Nc3cccc(O)c3)C(=O)NC2=O)c1 tgt=ACVR1 resultnumber=18
compound=CNc1nccc(-c2ccc3c(N)n[nH]c3c2)n1 tgt=ACVR1 resultnumber=7
compound="CC(C)NCC(Cc1ccccc1)NC(=O)c1cc(Br)c(-c2ccnc3[nH]ccc23)s1.Cl.Cl (stereo not drawn)" tgt=ACVR1 resultnumber=0
compound=Fc1cc(Cl)ccc1Nc1ccnc2cc(-c3ccc(CN4CCSCC4)o3)ccc12 tgt=ACVR1 resultnumber=84
compound="COc1cc(Nc2nccc(N3CCC(NC(=O)Nc4ccc5c(c4)OCO5)C3)n2)cc(OC)c1OC (stereo not drawn)" tgt=ACVR1 resultnumber=11
compound="Cc1ccc(-c2ccc3occ(-c4ccc(S(C)=O)cc4)c3c2)nn1 (stereo not drawn)" tgt=ACVR1 resultnumber=0
compound=Cc1ccc(NC(=O)c2cccc(N3CCCCC3)c2)cc1-c1ccc(C(=O)NCC2CC2)cc1 tgt=ACVR1 resultnumber=14
compound=Cc1ccc(C)c(NC(=O)Nc2ccc(C)c(-c3ccc(C(=O)Nc4ccncc4)cc3)c2)c1 tgt=ACVR1 resultnumber=18

====

tested on: PKN1; conditions: concentration: 1 μM, replicates: in singlicate; n = 1
Listed next: entries and their corresponding %Inh.
measuredProperty: %Inh (%)

compound="Cl.O=C(Nc1ccc(Oc2ccc3[nH]c(NC(=O)c4ccco4)nc3c2)cc1)Nc1cc(C(F)(F)F)ccc1F [GW683134]" resultnumber=7
compound="Nc1ncnc2scc(-c3ccc(NC(=O)Cc4cc(F)ccc4F)cc3)c12.O=C(O)C(F)(F)F [SB-731254-M]" resultnumber=4
compound="O=C(Nc1n[nH]c2nc(-c3cccc(O)c3)ccc12)C1CC1 [SB-711805]" resultnumber=0
compound="COc1ccc(C2=C(Nc3cccc(O)c3)C(=O)NC2=O)cc1 [SB-390766]" resultnumber=0
compound="CC(C)c1nc(-c2cccc(NS(=O)(=O)c3c(F)cccc3F)c2)c(-c2ccnc(Nc3ccc(N4CCOCC4)nc3)n2)s1.Cl [GSK1723980]" resultnumber=16
compound="Cn1cc(-c2ccc3c(c2)CCN3C(=O)Cc2cc(F)cc(F)c2F)c2c(N)ncnc21 [GSK2634140]" resultnumber=0
compound="COc1cccc(CC(=O)N2CCc3cc(-c4cn(C)c5ncnc(N)c45)ccc32)c1 [GSK2608899]" resultnumber=19
compound="Cc1ccc(NC(=O)c2ccnc(N3CCCCC3)c2)cc1-c1ccc(C(=O)NCC2CC2)cc1 [GW775610]" resultnumber=0

====

Listed next: entries and their corresponding %Inh.
tested on: PHKG2; conditions: concentration: 1 μM, replicates: in singlicate; n = 1
measuredProperty: %Inh

compound=Nc1ncc(-c2cn[nH]c2)c2scc(-c3ccc4c(c3)CCN4C(=O)Cc3ccccc3)c12 measuredproperty=%Inh result=0%
compound=Cc1ccc(Nc2ccnc(Nc3ccc(C)c(F)c3)n2)cc1O.Cl measuredproperty=%Inh result=0%
compound=Cn1cc(-c2cnc(N)c3c(-c4ccc5c(c4)CCN5C(=O)Cc4ccccc4)csc23)cn1 measuredproperty=%Inh result=14%
compound=COC(=O)Nc1nc2cc(Oc3ccc(NC(=O)Nc4cccc(SC)c4)cc3)ccc2[nH]1.Cl measuredproperty=%Inh result=34%
compound=CN(c1ccc(F)c(NC(=O)c2cccc(OC(C)(C)C#N)c2Cl)c1)c1ccc2nc(NC(=O)C3CC3)sc2n1 measuredproperty=%Inh result=0%
compound=N#Cc1cnc2cc(-c3cnc(CNCCN4CCOCC4)s3)ccc2c1Nc1ccc(Oc2ccccc2)cc1 measuredproperty=%Inh result=0%
compound=CCn1c(-c2nonc2N)nc2c(-c3ccccc3)ncc(OCCCN)c21.O=C(O)C(F)(F)F.O=C(O)C(F)(F)F measuredproperty=%Inh result=0%
compound=c1ccc(Oc2ccc(Nc3ccnc4cc(-c5ccc(CN6CCCCC6)o5)ccc34)cc2)nc1 measuredproperty=%Inh result=0%
compound="NCCC(NC(=O)c1cc(Br)c(-c2ccnc3[nH]ccc23)s1)c1ccccc1.O=C(O)C(F)(F)F.O=C(O)C(F)(F)F (stereo not drawn)" measuredproperty=%Inh result=12%
compound=Cl.O=C(Nc1ccc(Oc2ccc3[nH]c(NC(=O)c4ccco4)nc3c2)cc1)Nc1cc(C(F)(F)F)ccc1F measuredproperty=%Inh result=0%
compound=CCNC(=O)/C=C/c1n[nH]c2cc(Sc3ccccc3C(=O)NC)ccc12 measuredproperty=%Inh result=19%
compound=CSc1ccc(NC2=C(c3ccc(Cl)cc3)C(=O)NC2=O)cc1 measuredproperty=%Inh result=0%
compound=O=C(O)C(F)(F)F.O=c1[nH]ccc2nc(N[C@@H]3CCNC3)nc(Nc3ccc4c(c3)S(=O)(=O)CC4)c12 measuredproperty=%Inh result=93.7%
compound=Cc1ccc(NC(=O)c2ccnc(N3CCCCC3)c2)cc1-c1ccc(C(=O)NCC2CC2)cc1 measuredproperty=%Inh result=0%
compound=Cc1cccc(Nc2nc(NCCN)ncc2C(N)=O)c1 measuredproperty=%Inh result=63%
compound=Cc1cc(-c2ccnc(Nc3cccc(C#N)c3)n2)cc(C)c1O measuredproperty=%Inh result=15%
compound=Cc1ccc(O)cc1Nc1ccnc2ccc(C(C)(C)C)cc12 measuredproperty=%Inh result=0%
compound="Cl.Cl.NC(CNC(=O)c1cc(Br)c(-c2ccnc3[nH]ccc23)s1)c1ccccc1 (stereo not drawn)" measuredproperty=%Inh result=56%
compound=CN1CCN(Cc2ccc(NC(=O)Nc3ccc(N(C)c4ccnc(Nc5ccc(CS(C)(=O)=O)cc5)n4)cc3)cc2)CC1.Cl measuredproperty=%Inh result=0%
compound=COc1cc(Nc2ccnc3cc(-c4ccncc4)ccc23)cc(OC)c1OC.Cl measuredproperty=%Inh result=0%
compound="Cc1ccc(-c2ccc3occ(-c4ccc(S(C)=O)cc4)c3c2)nn1 (stereo not drawn)" measuredproperty=%Inh result=16%
compound=CN(C)CCOc1ccc(-c2cc(-c3ccc(Cl)c(O)c3)c(-c3ccncc3)[nH]2)cc1.Cl.Cl measuredproperty=%Inh result=0%
compound=COc1ccc(C2=C(Nc3cccc(O)c3)C(=O)NC2=O)cc1 measuredproperty=%Inh result=21%
compound=Cn1cc(-c2ccc3c(c2)CCN3C(=O)Cc2cc(F)cc(F)c2F)c2c(N)ncnc21 measuredproperty=%Inh result=0%
compound=CN(c1ccc(NC(=O)N2CCN(CCCN3CCOCC3)CC2)cc1)c1ccnc(Nc2ccc(CS(C)(=O)=O)cc2)n1.Cl measuredproperty=%Inh result=0%
compound="COc1cc(Nc2nccc(N3CCC(NC(=O)Nc4ccc5c(c4)OCO5)C3)n2)cc(OC)c1OC (stereo not drawn)" measuredproperty=%Inh result=0%
compound=Cc1ccc(C)c(NC(=O)Nc2ccc(C)c(-c3ccc(C(=O)Nc4ccncc4)cc3)c2)c1 measuredproperty=%Inh result=0%
compound=COc1ccc(NC(=O)c2ccoc2)cc1-c1ccc(C(=O)NCC2CC2)cc1 measuredproperty=%Inh result=0%
compound=CC(=O)Nc1cn2nc(Oc3cccc(NC(=O)c4cccc(C(F)(F)F)c4)c3)ccc2n1 measuredproperty=%Inh result=0%
compound=Cc1ccc(NC(=O)c2ccc(Cl)c(Cl)c2)cc1-c1ccc(C(=O)Nc2ccncc2)cc1 measuredproperty=%Inh result=0%
compound=COc1cccc2c(-c3ccncc3)c(-c3ccc(F)cc3)nn12 measuredproperty=%Inh result=0%
compound="Cl.Cl.NCC(NC(=O)c1cc(-c2cccnc2)c(-c2ccnc3[nH]ccc23)s1)c1ccccc1 (stereo not drawn)" measuredproperty=%Inh result=2%
compound=COc1cc(Nc2nccc(N3CCC(NS(=O)(=O)c4ccc(NC(C)=O)cc4)CC3)n2)cc(OC)c1OC measuredproperty=%Inh result=0%

Where do the numbers come from? From paper PMC5540273.
